system: clinical P. aeruginosa isolates; assay: microbe, parasite or virus in culture; conditions: Pseudomonas aeruginosa, 18 h, read-out: Antibiotic sensibility (MIC) of clinical P. aeruginosa isolate AUMC-Pa-6, strain AUMC-Pa-6; antibiotic alone
ENDPOINT: MIC (µM)
# unit: µM | format: bare number

CO[C@H]1/C=C/O[C@@]2(C)Oc3c(C)c(O)c4c(O)c(c(/C=N/N5CCN(C6CCCC6)CC5)c(O)c4c3C2=O)NC(=O)/C(C)=C\C=C\[C@H](C)[C@H](O)[C@@H](C)[C@@H](O)[C@@H](C)[C@H](OC(C)=O)[C@@H]1C	16

Field: next compound
The compound listed as CC[C@H]1OC(=O)[C@H](C)[C@@H](O[C@H]2C[C@@](C)(OC)[C@@H](O)[C@H](C)O2)[C@H](C)[C@@H](O[C@@H]2O[C@H](C)C[C@H](N(C)C)[C@H]2O)[C@](C)(O)C[C@@H](C)CN(C)[C@H](C)[C@@H](O)[C@]1(C)O has a reported MIC of 128

* * *

# FICI listing for each entry below
Test system: P. aeruginosa AUMC-Pa-5
Assay: microbe, parasite or virus in culture
Conditions: strain AUMC-Pa-5; antibiotic + D-11 (MICb/MICbc 64/4)
Description: The MIC tests were performed in triplicate using broth microdilution in accordance with Clinical and Laboratory Standards Institute (CLSI) recommendations (http://iacld.ir/DL/public/CLSI-2018-M100-S28.pdf). […] The fractional inhibitory concentration (FIC) indices were calculated using the previously described formula FICI = FICa + FICb = MICac/MICa + MICbc/MICb. […]
Number only, please.

Worked cases, answers included:
CO[C@H]1[C@H](OC(=O)c2ccc(C)[nH]2)[C@H](O)[C@@H](Oc2ccc3c(O)c(NC(=O)c4c[nH]c(C(=O)Nc5c(O)c6ccc(O[C@H]7OC(C)(C)[C@@H](OC)[C@H](OC(=O)c8ccc(C)[nH]8)[C@@H]7O)c(C)c6oc5=O)c4C)c(=O)oc3c2C)OC1(C)C	0.313
CN(C)c1cc(NC(=O)CNC(C)(C)C)c(O)c2c1C[C@H]1C[C@H]3[C@H](N(C)C)C(O)=C(C(N)=O)C(=O)[C@@]3(O)C(O)=C1C2=O	1.063
O=C(N[C@H](CO)[C@H](O)c1ccc([N+](=O)[O-])cc1)C(Cl)Cl	0.188
CC1COc2c(N3CCN(C)CC3)c(F)cc3c(=O)c(C(=O)O)cn1c23 (centres unmarked)	2.063
CO[C@@H]1[C@@H](OC(N)=O)[C@@H](O)[C@H](Oc2ccc3c(O)c(NC(=O)c4ccc(O)c(CC=C(C)C)c4)c(=O)oc3c2C)OC1(C)C	0.563

So for CO[C@H]1/C=C/O[C@@]2(C)Oc3c(C)c(O)c4c(O)c(c(/C=N/N5CCN(C6CCCC6)CC5)c(O)c4c3C2=O)NC(=O)/C(C)=C\C=C\[C@H](C)[C@H](O)[C@@H](C)[C@@H](O)[C@@H](C)[C@H](OC(C)=O)[C@@H]1C , the logged FICI turned out to be 0.563

* * *

system: P. aeruginosa AUMC-Pa-6; assay: microbe, parasite or virus in culture; details: strain AUMC-Pa-6; with D-11 at MICbc 4; unit not given
I'd appreciate it if you marked entries Yes when MICac: MIC of the antibiotic in the combination is lower than 4 and No when it is not.

C[C@H]1c2cccc(O)c2C(=O)C2=C(O)[C@]3(O)C(=O)C(C(N)=O)=C(O)[C@@H](N(C)C)[C@@H]3[C@@H](O)[C@@H]21 [Doxycycline]	Yes
COc1cc(Cc2cnc(N)nc2N)cc(OC)c1OC [Trimethoprim]	No
CN(C)c1cc(NC(=O)CNC(C)(C)C)c(O)c2c1C[C@H]1C[C@H]3[C@H](N(C)C)C(O)=C(C(N)=O)C(=O)[C@@]3(O)C(O)=C1C2=O [Tigecycline]	Yes
CC[C@H]1OC(=O)[C@H](C)[C@@H](O[C@H]2C[C@@](C)(OC)[C@@H](O)[C@H](C)O2)[C@H](C)[C@@H](O[C@@H]2O[C@H](C)C[C@H](N(C)C)[C@H]2O)[C@](C)(O)C[C@@H](C)CN(C)[C@H](C)[C@@H](O)[C@]1(C)O [Azithromycin]	No
CC[C@H]1OC(=O)[C@H](C)C(=O)[C@H](C)[C@@H](O[C@@H]2O[C@H](C)C[C@H](N(C)C)[C@H]2O)[C@](C)(OC)C[C@@H](C)C(=O)[C@H](C)[C@H]2N(CCCCn3cnc(-c4cccnc4)c3)C(=O)O[C@]12C [Telithromycin]	No

Now consider the entry below.
Just wondering, is MICac: MIC of the antibiotic in the combination of CO[C@H]1/C=C/O[C@@]2(C)Oc3c(C)c(O)c4c(O)c(c(/C=N/N5CCN(C6CCCC6)CC5)c(O)c4c3C2=O)NC(=O)/C(C)=C\C=C\[C@H](C)[C@H](O)[C@@H](C)[C@@H](O)[C@@H](C)[C@H](OC(C)=O)[C@@H]1C [Rifapentine] below 4?
Yes

* * *

tested on: P. aeruginosa PAO1; test: microbe, parasite or virus in culture; settings: S3 Table; PAO1; antibiotic + 4 μM D-11
// rule not met strictly below 0.2 in FICI; rule met otherwise

CC(=O)NC[C@H]1CN(c2ccc(N3CCOCC3)c(F)c2)C(=O)O1	rule met

In the following, a different molecule is considered.
Exam item: decide whether the reported FICI for C[C@H]1[C@H](NC(=O)/C(=N\OC(C)(C)C(=O)O)c2csc(N)n2)C(=O)N1S(=O)(=O)O is at least 0.2.
rule not met

* * *

# Lookup of reported FICI keyed by entry
tested on: P. aeruginosa NR-31040; test: microbe, parasite or virus in culture; conditions: strain NR-31040; antibiotic + D-11 (MICb/MICbc 128/4)
Positions of bridges follow the written chain, without caps; N, C: chain ends. Non-standard residues stand in square brackets, D forms with d. Residues, ends and D or L forms follow the SMILES beside them. *: point of attachment. X1 = CC[C@H](C)CCCCC(=O)*; Dab = NCC[C@H](N)C(=O)O
When you answer, write just the number.

Here's what some known entries look like.
C[C@H]1c2cccc(O)c2C(=O)C2=C(O)[C@]3(O)C(=O)C(C(N)=O)=C(O)[C@@H](N(C)C)[C@@H]3[C@@H](O)[C@@H]21	0.039
COc1cc(Cc2cnc(N)nc2N)cc(OC)c1OC	0.281
CC[C@H](C)CCCCC(=O)N[C@@H](CCN)C(=O)N[C@H](C(=O)N[C@@H](CCN)C(=O)N[C@H]1CCNC(=O)[C@H]([C@@H](C)O)NC(=O)[C@H](CCN)NC(=O)[C@H](CCN)NC(=O)[C@H](CC(C)C)NC(=O)[C@@H](CC(C)C)NC(=O)[C@H](CCN)NC1=O)[C@@H](C)O [Colistin] (X1-[Dab]T[Dab][Dab][Dab][dL]L[Dab][Dab]T; lactam 4-C (inferred); N-terminus assumed)	0.281

Kindly consider the entry below.
// assay P. aeruginosa NR-31040, entry CC[C@H]1OC(=O)[C@H](C)C(=O)[C@H](C)[C@@H](O[C@@H]2O[C@H](C)C[C@H](N(C)C)[C@H]2O)[C@](C)(OC)C[C@@H](C)C(=O)[C@H](C)[C@H]2N(CCCCn3cnc(-c4cccnc4)c3)C(=O)O[C@]12C , FICI value = 0.531

* * *

system: P. aeruginosa PA14; test: microbe, parasite or virus in culture; set-up: unit not given beside the values; conditions: strain PA14; with D-11 at MICbc 4; unit not given
The entries below are paired with their reported MICac: MIC of the antibiotic in the combination.

The cases that follow already have their MICac: MIC of the antibiotic in the combination on record.
CN(C)c1ccc(O)c2c1C[C@H]1C[C@H]3[C@H](N(C)C)C(O)=C(C(N)=O)C(=O)[C@@]3(O)C(O)=C1C2=O	2
CC[C@H]1OC(=O)[C@H](C)C(=O)[C@H](C)[C@@H](O[C@@H]2O[C@H](C)C[C@H](N(C)C)[C@H]2O)[C@](C)(OC)C[C@@H](C)C(=O)[C@H](C)[C@H]2N(CCCCn3cnc(-c4cccnc4)c3)C(=O)O[C@]12C	16
CO[C@@H]1[C@@H](OC(=O)c2ccc(C)[nH]2)[C@@H](O)[C@H](Oc2ccc3c(O)c(NC(=O)c4ccc(O)c(CC=C(C)C)c4)c(=O)oc3c2Cl)OC1(C)C	1/1
C[C@@H](O)[C@H]1C(=O)N2C(C(=O)O)=C(S[C@@H]3CN[C@H](C(=O)N(C)C)C3)[C@H](C)[C@H]12	2/2

Please look at the following molecule next.
Record C[C@H]1c2cccc(O)c2C(=O)C2=C(O)[C@]3(O)C(=O)C(C(N)=O)=C(O)[C@@H](N(C)C)[C@@H]3[C@@H](O)[C@@H]21 , field MICac: MIC of the antibiotic in the combination: 1
